Origin of the recorded values: PubChem BioAssay AID1296

Test Details: insulin gene promoter stimulation in islet cells – imaging, TRM-6 cells, eGFP reporter, cell count, primary screen (AID 1296);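 also: cells counted after 48 h compound exposure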
Measurement Context: at 2 µM; measured here: cell count (toxicity)
About 1,000 (0.77%) of roughly 130,000 compounds were called active. Inconclusive results (about 1%) are left out. For the sample, actives were picked, then their nearest neighbours and some compounds at random.
Quantity Kind: normalized cell count (%)
The response must be a number in % with no trailing unit.

| Compound | normalized cell count / % |
| --- | --- |
| N#C/C(=C/c1ccc(N2CCOCC2)o1)C(=O)N1CCOCC1 | 59.4 |
| Cc1ccccc1NC(=O)C(C)c1ccc(-c2ccccc2)c(F)c1 (stereo not drawn) | 168 |
| COCCCNCCOCCOc1ccc(Cl)cc1Br | 166 |
| COc1ccc(-c2noc(-c3ccc(C)cc3)n2)cc1 | 143 |

# return recorded normalized cell count for entry Cc1ccc(S(=O)(=O)c2ccc(Cl)cc2)cc1S(=O)(=O)NC(C(=O)O)C(C)C (stereo not drawn)
127

# return recorded normalized cell count for entry O=C(CN1C(=O)NC2(CCCCC2)C1=O)NCCC1=CCCCC1
86.8

# return recorded normalized cell count for entry O=C(CSc1nn(-c2ccc(F)cc2)c(=S)s1)NC1CCS(=O)(=O)C1 (stereo not drawn)
104

###

Reported normalized cell count values for a set of compounds
Test Details: insulin gene promoter stimulation in islet cells – imaging, TRM-6 cells (human fetal islet line), eGFP reporter, cell count, primary screen (AID 1296)
Measurement Context: at 2 µM; measured here: cell count (toxicity)
The whole screen tested about 130,000 compounds, of which about 1,000 (0.77%) were called active. Inconclusive results (about 1%) are left out. Many of the other results were omitted from the sample, so actives are more common in it than they were.

| Compound | normalized cell count |
| --- | --- |
| CSCCC(=O)N1CCCC(CNC(=O)c2ccccc2Cl)C1 (stereo unspecified) | 83% |
| OCCNCCOc1ccc(Cl)c(Cl)c1 | 86.5% |
| O=C(CN1C(=O)NC2(CCCCCC2)C1=O)NC1CC1 | 78.5% |
| Cc1nc2ccccc2cc1C(=O)N/N=C/c1ccc([N+](=O)[O-])cc1 | 81% |
| Cc1ccc(-n2c(Cc3cccs3)nnc2SCC(=O)OC(C)C)cc1 | 48% |
| CN(c1ccc(OCC(=O)OCC(=O)Nc2cccc([N+](=O)[O-])c2)cc1)S(=O)(=O)c1ccc(F)cc1 | 119% |
| O=C(Nc1ccccc1)N1CCN(Cc2ccccc2)CC1 | 57.8% |
| N#C/C(=C/c1ccc(N2CCCCC2)o1)C(=O)NCCc1c[nH]c2ccccc12 | 92.9% |

# return recorded normalized cell count for entry O=C(Nc1ccccc1)OCc1cn(-c2ccc(Cl)cc2)nn1
118%

# return recorded normalized cell count for entry Cc1ccc(-c2noc(CSc3nnc(-c4ccccc4)n3C)n2)cc1
65.9%

# return recorded normalized cell count for entry O=C(Nc1ccccc1N1CCCCC1)c1cccc(F)c1
92.9%
